Target: human Nav1.7 (Homo sapiens (Human), UniProt Q15858)
Sequence (Q15858 whole entry): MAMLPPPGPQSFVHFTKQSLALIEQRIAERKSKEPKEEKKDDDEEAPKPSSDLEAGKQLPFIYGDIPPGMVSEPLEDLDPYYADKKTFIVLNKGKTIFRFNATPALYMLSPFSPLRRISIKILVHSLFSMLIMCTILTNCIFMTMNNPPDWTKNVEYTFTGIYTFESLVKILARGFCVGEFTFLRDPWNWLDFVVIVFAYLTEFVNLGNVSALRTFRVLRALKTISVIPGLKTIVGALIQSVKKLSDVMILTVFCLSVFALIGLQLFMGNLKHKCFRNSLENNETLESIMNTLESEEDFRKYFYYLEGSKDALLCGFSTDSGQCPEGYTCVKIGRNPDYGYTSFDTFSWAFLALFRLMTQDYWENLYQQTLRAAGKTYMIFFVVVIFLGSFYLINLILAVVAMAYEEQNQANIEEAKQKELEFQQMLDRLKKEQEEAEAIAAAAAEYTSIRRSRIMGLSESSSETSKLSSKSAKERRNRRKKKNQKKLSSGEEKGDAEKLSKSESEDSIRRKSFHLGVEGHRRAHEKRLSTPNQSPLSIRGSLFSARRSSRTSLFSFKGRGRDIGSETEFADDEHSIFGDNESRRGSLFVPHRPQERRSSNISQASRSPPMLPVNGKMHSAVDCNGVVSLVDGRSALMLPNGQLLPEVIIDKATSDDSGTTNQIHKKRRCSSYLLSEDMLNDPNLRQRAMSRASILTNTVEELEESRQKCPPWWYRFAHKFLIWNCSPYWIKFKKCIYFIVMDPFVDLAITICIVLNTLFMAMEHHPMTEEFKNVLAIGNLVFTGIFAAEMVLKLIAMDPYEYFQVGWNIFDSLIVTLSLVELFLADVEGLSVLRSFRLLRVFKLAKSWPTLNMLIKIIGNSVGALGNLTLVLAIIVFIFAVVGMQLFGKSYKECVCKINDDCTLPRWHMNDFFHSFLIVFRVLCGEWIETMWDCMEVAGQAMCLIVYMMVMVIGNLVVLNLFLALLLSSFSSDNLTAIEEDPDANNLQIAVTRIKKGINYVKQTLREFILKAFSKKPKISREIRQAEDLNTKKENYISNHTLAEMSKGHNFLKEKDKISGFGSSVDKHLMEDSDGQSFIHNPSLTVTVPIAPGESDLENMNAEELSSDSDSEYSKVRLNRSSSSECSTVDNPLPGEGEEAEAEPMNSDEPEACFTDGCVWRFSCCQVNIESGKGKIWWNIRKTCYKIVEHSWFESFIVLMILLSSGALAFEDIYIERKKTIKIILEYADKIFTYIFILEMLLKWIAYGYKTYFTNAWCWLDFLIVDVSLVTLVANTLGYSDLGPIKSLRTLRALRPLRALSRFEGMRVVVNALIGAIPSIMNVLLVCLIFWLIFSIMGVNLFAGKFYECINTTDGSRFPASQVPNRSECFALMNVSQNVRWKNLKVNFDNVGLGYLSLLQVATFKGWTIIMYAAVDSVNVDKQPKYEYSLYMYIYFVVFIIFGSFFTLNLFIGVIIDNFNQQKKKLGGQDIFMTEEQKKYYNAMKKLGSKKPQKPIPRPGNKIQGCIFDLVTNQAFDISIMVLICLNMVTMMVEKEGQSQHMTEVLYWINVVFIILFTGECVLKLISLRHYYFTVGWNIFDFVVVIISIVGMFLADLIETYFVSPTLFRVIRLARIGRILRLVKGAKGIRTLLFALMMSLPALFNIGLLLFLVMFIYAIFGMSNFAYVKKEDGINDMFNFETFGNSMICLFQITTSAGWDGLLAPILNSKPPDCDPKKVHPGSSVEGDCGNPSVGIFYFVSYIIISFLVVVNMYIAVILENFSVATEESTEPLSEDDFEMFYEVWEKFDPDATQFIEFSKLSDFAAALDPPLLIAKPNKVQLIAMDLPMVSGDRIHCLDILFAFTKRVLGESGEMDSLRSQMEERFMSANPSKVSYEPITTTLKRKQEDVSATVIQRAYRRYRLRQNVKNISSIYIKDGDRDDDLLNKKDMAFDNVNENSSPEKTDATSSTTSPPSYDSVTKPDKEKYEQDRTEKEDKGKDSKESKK
Test: Nav 1.7 in vitro PatchXpress (PX) assay
Assay type: cell-based
Conditions: in-vitro Nav 1.7 PX data
MEASUREMENT_KIND: pIC50
Value format note: pIC50 is -log10 of concentration (mol/L); just state the number.

Some molecules with known pIC50 results, for comparison:
molecule=CS(=O)(=O)NC(=O)c1cc(OC(F)F)c(-c2cnc(OC3CCC3)c(Cl)c2)cc1F observed_result=6.84
molecule=Cc1cc(C(=O)NS(C)(=O)=O)c(F)cc1-c1ccc(C(F)(F)F)c(Cl)c1 observed_result=6.38
molecule=COc1cc(C(=O)NS(C)(=O)=O)ccc1-c1cnc(COc2ccc(C#N)cc2)c(Cl)c1 observed_result=5.18
molecule=Cc1cc(C(=O)NS(C)(=O)=O)c(F)cc1-c1cnc(NC(C)(C)C)c(Cl)c1 observed_result=6.64
molecule="COc1cc(C(=O)NS(C)(=O)=O)c(F)cc1-c1cnc(OCc2nc3ccccc3s2)c(Cl)c1 [Example 708]" observed_result=7.49
molecule=COc1cc(C(=O)NS(C)(=O)=O)c(F)cc1-c1cnc(Oc2cc(Cl)c(Cl)cc2Cl)c(Cl)c1 observed_result=7.29
molecule="COc1cc(C(=O)NS(C)(=O)=O)c(F)cc1-c1cnc(OCc2nc3ccccc3s2)c(Cl)c1 [Example 709]" observed_result=7.46
molecule="CC[C@@H](Oc1ncc(-c2cc(F)c(C(=O)NS(C)(=O)=O)cc2OC)cc1Cl)C(F)(F)F [Example 736]" observed_result=7.08
molecule=Cc1cc(Cl)cc(Cl)c1Oc1ncc(-c2cc(F)c(C(=O)NS(C)(=O)=O)cc2OC(F)F)cc1Cl observed_result=7.79
molecule=COc1cc(C(=O)NS(C)(=O)=O)c(F)cc1-c1cnc(O[C@@H]2CC[C@@H]2C)c(Cl)c1 observed_result=6.96

Request: Recall the recorded pIC50 for `COc1cc(C(=O)NS(C)(=O)=O)c(F)cc1-c1cnc(Oc2ccc(C)c(F)c2F)c(Cl)c1` with human Nav1.7 (Homo sapiens (Human), UniProt Q15858) and state it.
Result: 7.20

Request: Form field: pIC50 recorded for `Cc1cc(C(=O)NS(=O)(=O)c2nccs2)c(F)cc1-c1cnc(Oc2c(C)cc(Cl)cc2Cl)c(Cl)c1` with human Nav1.7 (Homo sapiens (Human), UniProt Q15858) (enter value)
Result: 7.64

Request: Give human Nav1.7 (Homo sapiens (Human), UniProt Q15858) pIC50 for `COc1cc(C(=O)NS(C)(=O)=O)c(F)cc1-c1cnc(O[C@H](C)c2ccccc2)c(Cl)c1`
Result: 7.03

Request: Give human Nav1.7 (Homo sapiens (Human), UniProt Q15858) pIC50 for `COc1cc(C(=O)NS(C)(=O)=O)ccc1-c1cnc(Cc2ccc(Cl)c(Cl)c2)c(Cl)c1`
Result: 7.30

Request: API: value(readout= pIC50, system= human Nav1.7 (Homo sapiens (Human), UniProt Q15858), query= `COc1cc(C(=O)NS(C)(=O)=O)c(F)cc1-c1cnc(Oc2cccc(C)c2Cl)c(Cl)c1` )
Result: 7.21

---

Molecular target: human Nav1.7 (Homo sapiens (Human), UniProt Q15858)
Assay: Nav 1.7 in vitro PatchXpress (PX) assay
Format: cell-based
MEASUREMENT_KIND: pIC50
// scale note: pIC50 = -log10(conc_M); give the bare number

The following compounds have reported results that may help.
compound_string=CS(=O)(=O)NC(=O)c1ccc(-c2cnc(Oc3cccc4ccccc34)c(Cl)c2)c(OC(F)F)c1 measurement_kind=pIC50 observed_result=7.22
compound_string=Cc1cc(C(=O)NS(C)(=O)=O)c(F)cc1-c1cnc(O[C@H](C)c2ccc(F)cc2Cl)c(Cl)c1 measurement_kind=pIC50 observed_result=7.18
compound_string=COc1cc(C(=O)NS(C)(=O)=O)c(F)cc1-c1cnc(Oc2cccc(Cl)c2C)c(Cl)c1 measurement_kind=pIC50 observed_result=7.33

Request: What measured pIC50 goes with `COc1cc(C(=O)NS(C)(=O)=O)ccc1-c1cnc(Oc2c(Cl)cc(C)cc2Cl)c(C#N)c1` ?
Result: 7.66

Request: Given the compound `Cc1cc(C(=O)NS(C)(=O)=O)c(F)cc1-c1cnc(Oc2cccc3c2CCCC3)c(Cl)c1` , what is its reported pIC50?
Result: 6.98

Request: What measured pIC50 goes with `Cc1cc(C(=O)NS(C)(=O)=O)c(F)cc1-c1cnc(Oc2cc(F)cc(F)c2Cl)c(Cl)c1` ?
Result: 7.20

Request: Return reported pIC50; argument: `Cc1ccc(Cl)c(Oc2ncc(-c3ccc(C(=O)NS(C)(=O)=O)cc3OC3COC3)cc2Cl)c1`
Result: 7.41

Request: For `COc1cc(C(=O)NS(C)(=O)=O)ccc1-c1cnc(Oc2ccc(F)c(F)c2F)c(Cl)c1` , what is its reported pIC50?
Result: 7.05

Request: Can you share its pIC50? I mean this compound: `CS(=O)(=O)NC(=O)c1ccc(-c2cnc(Oc3ccc4ccccc4c3)c(Cl)c2)c(OC(F)F)c1`
Result: 7.13

Request: Requested read-out: pIC50. Entry: `COc1cc(C(=O)NS(C)(=O)=O)ccc1-c1cnc(Oc2cccc(F)c2F)c(Cl)c1`
Result: 7.10

Request: Look up pIC50: `Cc1cc(C(=O)NS(C)(=O)=O)c(F)cc1-c1cnc(Oc2ccc(Cl)cc2Cl)c(Cl)c1`
Result: 7.45

Request: Could you tell me which pIC50 is on file for `Cc1ccc(Oc2ncc(-c3ccc(C(=O)NS(C)(=O)=O)cc3OC(F)F)cc2Cl)cc1Cl` ?
Result: 7.10

Request: Give its pIC50 value. Item: `COc1cc(C(=O)NS(C)(=O)=O)ccc1-c1cnc(Oc2cccc(Cl)c2C)c(C#N)c1`
Result: 7.33

Request: Please report the recorded pIC50 for `Cc1cc(C(=O)NS(C)(=O)=O)c(F)cc1-c1cnc(Oc2c(C)cc(Cl)cc2C)c(Cl)c1` .
Result: 7.18

Request: Param item = `CS(=O)(=O)NC(=O)c1ccc(-c2cnc(Oc3cccc(C(F)(F)F)c3)c(Cl)c2)c(OC(F)F)c1` ; retrieve measured pIC50.
Result: 7.19

// provenance: patent US9663508B2
